Listed here are sequences together with their documented recombinant UMI read abundance (log10).
assay: recombinant UMI read abundance after kanamycin selection (control-corrected) (log10(CPM+1)); higher = more efficient recombination; extreme values may be limits of the assay; sequences stand for … in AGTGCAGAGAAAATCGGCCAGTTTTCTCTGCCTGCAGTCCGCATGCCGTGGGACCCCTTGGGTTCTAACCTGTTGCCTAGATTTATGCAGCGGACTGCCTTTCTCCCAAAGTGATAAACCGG…AGGTTGGTTTCACT; site = the 11-nt donor
quantity: recombinant UMI read abundance (log10)

chain | measured-number
AAACGTCCATGGACCGGTTTTCCCGGTAATCCGTATTTGAT (site AAGCGTCCTAT) | 0.266
GTAGGTGCATGGACCGGTTTTCCCGGTAATCCGTATTTGAC (site GTAGGTACTGT) | 2.25
ACAAAGGCATGGACCGGTTTTCCCGGTAATCCGTATTTGCT (site AAAAAGGCTAG) | 0
CGCATTACATGGACCGGTTTTCCCGGTAATCCGTATTTGCA (site CGCATTACTTG) | 1.64
CTTCTTTCATGGACCGGTTTTCCCGGTAATCCGTATTTGTA (site CTTCTATCTTA) | 0.00989
AGTAGTGCATGGACCGGTTTTCCCGGTAATCCGTATTTGGT (site AATAGTGCTAC) | 0.246
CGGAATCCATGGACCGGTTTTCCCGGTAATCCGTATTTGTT (site CTGAATCCTCA) | 0.0195
GGGAAGACATGGACCGGTTTTCCCGGTAATCCGTATTTGCA (site AGGAAGACTTG) | 0.813
GCGAAATCATGGACCGGTTTTCCCGGTAATCCGTATTTGCT (site GCGAAATCTAG) | 1.62
CGTCTGGCATGGACCGGTTTTCCCGGTAATCCGTATTTGCT (site CGTCTGGCTAG) | 0.46

----------
assay: recombinant barcode read abundance after kanamycin selection (control-corrected) (log10(CPM+1)); higher = more efficient recombination; sequences stand for … in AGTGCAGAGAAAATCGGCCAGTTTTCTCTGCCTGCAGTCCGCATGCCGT…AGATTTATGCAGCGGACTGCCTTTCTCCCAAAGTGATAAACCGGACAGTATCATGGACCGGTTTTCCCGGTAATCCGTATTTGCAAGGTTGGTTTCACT; site = the 11-nt target
Lab note: compare recombinant barcode read abundance (log10) against 0.1. Equal or greater, write t. Smaller, write f.

chain | assigned-label
CTGGTGCCTTGGGTTCTAACCTGTTGCCT (site CCGGTGCCTAG) | t
CCATACGCTTGGGTTCTAACCTGTTGCCT (site CCATACGCTAG) | t
TCTAAGACTTGGGTTCTAACCTGTTGCGC (site CTACCCTCTAG) | f
ACATATACTTGGGTTCTAACCTGTTGCTT (site ACATATACTAA) | f
CGACTGCCTTGGGTTCTAACCTGTTGCGT (site CGACTGCCTAC) | t

----------
Listed here are sequences together with their documented recombinant barcode read abundance (log10).
assay: recombinant barcode read abundance after kanamycin selection (control-corrected) (log10(CPM+1)); higher = more efficient recombination; sequences stand for … in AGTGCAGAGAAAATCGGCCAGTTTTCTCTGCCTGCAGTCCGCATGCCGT…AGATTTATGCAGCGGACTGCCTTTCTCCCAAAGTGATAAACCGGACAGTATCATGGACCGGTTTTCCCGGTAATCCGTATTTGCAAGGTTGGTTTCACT; site = the 11-nt target
quantity: recombinant barcode read abundance (log10)

chain | measured-number
TAGCATACTTGGGTTCTAACCTGTTGCCG (site TAGCATACTTG) | 0.198
GAGCGTTCTTGGGTTCTAACCTGTTGCCT (site GAGCGCTCTCG) | 0.199
TGCTGTCCTTGGGTTCTAACCTGTTGCCT (site TGCTGTACTAG) | 0.2
